β-Galactosidase Activity, Cultured Without ATC listing for selected molecules.
- System: tet operator sequence
- METHOD SUMMARY: β-galactosidase activity of a tetracycline-regulated promoter in transformed E. coli with revTetR, in the presence and absence of anhydrotetracycline (atc)
- Type: cell-based, Escherichia coli
- REPORTED CONDITIONS: RevTetR isolate cultured in the absence of anhydrotetracycline (ATC)
- Protocol: The relative activity of revTetR repressors was determined at 28° C. and 37° C. for each clone by measuring β-galactosidase activity of a tetracycline-regulated promoter in transformed Escherichia coli in the presence and absence of the tetracycline analog, anhydrotetracycline (atc). The relative β-galactosidase activity was measured in standard Miller units and is presented as the percent of maximal expression as measured in the absence of Tet repressor. […]
MEASURED METRIC: β-Galactosidase Activity, Cultured Without ATC

MOLECULE | VALUE REPORTED
TetRrevAD3/7: revTetR(BD) L17M E19D L52L D53Y A54A A56E (protein, Modified tetracycline repressor, revTetR(BD) L17M E19D L52L D53Y A54A A56E) MSRLDKSKVINSALELMNDVGIEGLTTRKLAQKLGVEQPTLYWHVKNKRALLYALEVEILARHHDYSLPAAGESWQSFLRNNAMSFRRALLRYRDGAKVHLGTRPDEKQYDTVETQLRFMTENGFSLRDGLYAISAVSHFTLGAVLEQQEHTAALTDRPAAPDENLPPLLREALQIMDSDDGEQAFLHGLESLIRGFEVQLTALLQIV | 73.4537
TetRrevAD3/6: revTetR(BD) V20G A56P I59L R62R (protein, Modified tetracycline repressor, revTetR(BD) V20G A56P I59L R62R) MSRLDKSKVINSALELLNEGGIEGLTTRKLAQKLGVEQPTLYWHVKNKRALLDALPVELLARHHDYSLPAAGESWQSFLRNNAMSFRRALLRYRDGAKVHLGTRPDEKQYDTVETQLRFMTENGFSLRDGLYAISAVSHFTLGAVLEQQEHTAALTDRPAAPDENLPPLLREALQIMDSDDGEQAFLHGLESLIRGFEVQLTALLQIV | 93.0552

Where these numbers come from: patent US20030186281A1
